Taken from patent EP1388586A2.

molecular target: DRB1*0101 (DR1) (Homo sapiens, UniProt P01903+P01911, A100R/D57E/F55L/F60I/F76Y/I96L/L162R/M171V/P40L/Q125E/R42F/V115G/Y59C); construct: used as sources of human HLA class II molecules; endogenous in cells; host or cells: LG2 (EBV-transformed homozygous B cell line); assay: Class II peptide-binding assay, DR1; conditions: read-out: DR1 nM; Table VIII, In IC50 Format;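 also: competition assay: unlabeled test peptides inhibit binding of a radiolabeled probe peptide to purified DR, with half-maximal inhibition taken as an approximate dissociation constant Kd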
Square brackets hold non-standard residues; d marks the D form. Peptide text beside a SMILES is read from it.
quantity_name: pIC50
Scale: pIC50 equals -log10([C]), with [C] in mol/L.

Would you please look over these solved cases?
>>> obs_value("C[C@H](NC(=O)[C@H](N)Cc1ccc(O)cc1)C(=O)N[C@@H](C)C(=O)N[C@@H](Cc1ccccc1)C(=O)N[C@@H](C)C(=O)N[C@@H](C)C(=O)N[C@@H](C)C(=O)N[C@@H](C)C(=O)N[C@H](C(=O)N[C@@H](CCCCN)C(=O)N[C@@H](C)C(=O)N[C@@H](C)C(=O)N[C@@H](C)C(=O)N[C@H](C)C(N)=O)[C@@H](C)O [Peptide 828.10] (H-[dY]AAFAAAATKAAA[dA]-NH2)")
8.72
>>> obs_value("CC(C)C[C@H](NC(=O)[C@@H](NC(=O)[C@@H](NC(=O)[C@H](CCC(N)=O)NC(=O)[C@H](CO)NC(=O)[C@H](CCC(N)=O)NC(=O)[C@H](Cc1ccccc1)NC(=O)[C@H](CCCCN)NC(=O)[C@H](C)NC(=O)[C@H](N)Cc1ccc(O)cc1)[C@@H](C)O)[C@@H](C)O)C(=O)N[C@@H](CCCCN)C(=O)N[C@@H](C)C(=O)N[C@@H](CCCCN)C(=O)N[C@@H](C(N)=O)[C@H](C)O [Peptide 858.02] (H-[dY]AKFQSQTTLKAK[dT]-NH2)")
8.05

Below: the item to evaluate.
Problem: Can you look up the measured pIC50 of C[C@H](NC(=O)[C@H](N)Cc1ccc(O)cc1)C(=O)N[C@@H](C)C(=O)N[C@@H](Cc1ccccc1)C(=O)N[C@@H](C)C(=O)N[C@@H](C)C(=O)N[C@@H](C)C(=O)N[C@@H](C)C(=O)N1CCC[C@H]1C(=O)N[C@@H](CCCCN)C(=O)N[C@@H](C)C(=O)N[C@@H](C)C(=O)N[C@@H](C)C(=O)N[C@H](C)C(N)=O [Peptide 828.06] (H-[dY]AAFAAAAPKAAA[dA]-NH2) for me?
Result: 8.70

---

biological target: DRB1*1201 (DR5w12) (Homo sapiens, UniProt P01903+P01911, A100R/A169T/D57E/D86V/F55L/H45Y/K41T/L162R/M171V/P40S/Q125H/Q178H/Q39Y/Q99D/R42G/S66L/T262R/V114A/V67L/W38E/Y59H/Y61H/Y89S); construct: used as sources of human HLA class II molecules; endogenous in cells; host or cells: Herluf (EBV-transformed homozygous B cell line); test: Class II peptide-binding assay, DR5w12; settings: Table V B) Correct Predictions; read-out: Binding Capacity (IC50% nM) DR5w12
Ends that are not written are not given here.
quantity_name: IC50 (nM)
Answer with a number only, understood to be in nM.

Problem: Form field: reported IC50 of LAAIIFLFGPPTALRS [Peptide 1136.28]
Result: 4480
